Sourced from patent US20220370453A1

# assayed target: BCDIN3D (Homo sapiens)
# Sequence (Q7Z5W3 1-292): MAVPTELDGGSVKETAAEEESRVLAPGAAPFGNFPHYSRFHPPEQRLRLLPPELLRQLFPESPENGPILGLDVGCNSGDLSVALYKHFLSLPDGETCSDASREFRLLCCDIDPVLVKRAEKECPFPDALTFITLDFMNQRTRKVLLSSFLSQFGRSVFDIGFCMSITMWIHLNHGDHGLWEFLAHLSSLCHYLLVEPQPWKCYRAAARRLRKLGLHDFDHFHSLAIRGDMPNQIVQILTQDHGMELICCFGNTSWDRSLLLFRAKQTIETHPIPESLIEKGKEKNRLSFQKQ
# experiment: BCDIN3D IC50 RFMS (RapidFire) assay with mini-helix
# Assay type: biochemical
# cond: mini-helix substrate 0.2 μM, SAM 6 μM, 25 nM enzyme
Measured IC50, listed per entry.

Known results for compounds:
[
  {
    "compound": "Cn1ncc2c(Nc3ccc(C(F)(F)F)cc3)nc(NC[C@H](N)c3ccccc3)nc21",
    "observable": "IC50",
    "measured result": "34.1 nM"
  },
  {
    "compound": "Cn1ncc2c(NC3CC4(C3)CC(F)(F)C4)nc(NCC(N)c3ccccc3)nc21 (centres unmarked)",
    "observable": "IC50",
    "measured result": "25.6 nM"
  }
]

## Input # value lookup — system BCDIN3D (Homo sapiens), readout IC50, item Cc1ccc(CNc2nc(NC[C@@H](C)N)nc3c2cnn3C)cc1Cl
## Output 665 nM

## Input Query Cn1ncc2c(NCc3ccc(C(F)(F)F)nc3)nc(NCC3(N)CC3)nc21 next
## Output 7120 nM

## Input Query Cn1ncc2c(NC3CC4(C3)CC(F)(F)C4)nc(NC[C@H](N)c3ccccc3)nc21 next
## Output 6.1 nM

## Input Query COC[C@@H](C)Nc1nc(NC[C@H](N)c2ccccc2)nc2c1cnn2C next
## Output 783 nM

## Input Query CC[C@@H](N)CNc1nc(NCc2ccc(C)c(Cl)c2)c2cnn(C)c2n1 next
## Output 299 nM
